Biological target: T1, Dmc1-WT;Mei5-Sae3 (Saccharomyces cerevisiae;Saccharomyces …, UniProt P25453;P32489;P89114 1-334;1-222;1-91, |)
T1 sequence 1: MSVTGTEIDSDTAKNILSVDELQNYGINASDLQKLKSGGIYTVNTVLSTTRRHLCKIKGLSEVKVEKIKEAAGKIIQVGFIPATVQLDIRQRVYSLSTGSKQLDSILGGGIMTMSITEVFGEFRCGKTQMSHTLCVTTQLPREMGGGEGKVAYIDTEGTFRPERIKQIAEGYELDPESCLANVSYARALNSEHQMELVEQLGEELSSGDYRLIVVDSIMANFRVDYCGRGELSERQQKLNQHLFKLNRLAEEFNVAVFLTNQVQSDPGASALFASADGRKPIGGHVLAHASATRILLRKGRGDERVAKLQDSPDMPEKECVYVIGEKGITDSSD
T1 sequence 2: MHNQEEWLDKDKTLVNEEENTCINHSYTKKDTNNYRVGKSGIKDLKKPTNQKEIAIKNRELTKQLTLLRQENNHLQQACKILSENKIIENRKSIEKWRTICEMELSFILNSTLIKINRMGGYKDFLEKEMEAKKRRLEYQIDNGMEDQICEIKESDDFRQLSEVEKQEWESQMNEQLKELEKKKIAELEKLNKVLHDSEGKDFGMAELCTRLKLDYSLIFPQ
T1 sequence 3: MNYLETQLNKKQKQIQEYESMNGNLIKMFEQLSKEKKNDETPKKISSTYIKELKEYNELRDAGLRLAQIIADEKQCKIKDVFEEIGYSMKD
Assay: fluorescence polarization; ATP, 70 uM Ca2+, Mei5-Sae3 (400 nM, no own signal); FP: 25 mM HEPES pH 7.5, 1 mM Mg2+, 1 mM ATP, 1 mM DTT, 50 mM NaCl (100 mM in Fig. 3), 100 ug/ml BSA, 0.02% NP-40, 70 uM Ca2+ or as indicated, 3 nM 84-nt ssDNA
Conditions: protein: recombinant;recombinant; tags: N-terminal 6xHis;N-terminal 6xHis on Mei5; label: 5' Alexa Fluor 488
measured property: Kd (nM)
Your answer should be a plain number; it is taken to be in nM.

-- ask Item 84 nt-ssDNA (ssDNA) DNA: GGTAGCGGTTGGGTGAGTGGTGGGGAGGGTCGGGAGGTGGCGTAGAAACATGATAGGAATGTGAATGAATGAAGTACAAGTAAA : provide Kd
-- reply 512
